# PARTICULARS: in acetone, 288.15 K
MEASUREMENT_TYPE: solubility (mole fraction)
Give only the figure.

Record summary for `CC(C)C(=O)Nc1ccc([N+](=O)[O-])c(C(F)(F)F)c1` : reported solubility (mole fraction) = 0.228

* * *

# PARTICULARS: in methanol, 308.15 K
MEASUREMENT_TYPE: solubility (mole fraction)
Please reply with the number alone, leaving off any unit.

The compound listed as `CC(C)C(=O)Nc1ccc([N+](=O)[O-])c(C(F)(F)F)c1` has a reported solubility (mole fraction) of 0.103

* * *

# PARTICULARS: in methanol, 323.15 K
MEASUREMENT_TYPE: solubility (mole fraction)
Give the figure by itself; no unit, no explanation.

Per the record, `CC(C)C(=O)Nc1ccc([N+](=O)[O-])c(C(F)(F)F)c1` has solubility (mole fraction) of 0.166

* * *

# PARTICULARS: in n-propanol, 323.15 K
MEASUREMENT_TYPE: solubility (mole fraction)
Number only, no unit.

Given item `CC(C)C(=O)Nc1ccc([N+](=O)[O-])c(C(F)(F)F)c1` , the value recorded as its solubility (mole fraction) is 0.15

* * *

# PARTICULARS: in ethyl acetate, 278.15 K
MEASUREMENT_TYPE: solubility (mole fraction)

Lookup result for `CC(C)C(=O)Nc1ccc([N+](=O)[O-])c(C(F)(F)F)c1` ; measured solubility (mole fraction): 0.161

* * *

# PARTICULARS: in isopropanol, 288.15 K
MEASUREMENT_TYPE: solubility (mole fraction)

According to the records, this molecule `CC(C)C(=O)Nc1ccc([N+](=O)[O-])c(C(F)(F)F)c1` displays solubility (mole fraction) of 0.0692

* * *

# PARTICULARS: in ethanol, 308.15 K
MEASUREMENT_TYPE: solubility (mole fraction)

For `CC(C)C(=O)Nc1ccc([N+](=O)[O-])c(C(F)(F)F)c1` the compound record lists solubility (mole fraction) as 0.102

* * *

# PARTICULARS: in ethanol, 303.15 K
MEASUREMENT_TYPE: solubility (mole fraction)
The response must contain the number and no unit.

The recorded solubility (mole fraction) for `CC(C)C(=O)Nc1ccc([N+](=O)[O-])c(C(F)(F)F)c1` is 0.0908

* * *

# PARTICULARS: in 1,4-dioxane, 303.15 K
MEASUREMENT_TYPE: solubility (mole fraction)

Per the records, this compound ( `CC(C)C(=O)Nc1ccc([N+](=O)[O-])c(C(F)(F)F)c1` ) has solubility (mole fraction) equal to 0.203

* * *

# PARTICULARS: in methanol, 313.15 K
MEASUREMENT_TYPE: solubility (mole fraction)
Lab note: record the figure alone, no unit after it.

Field solubility (mole fraction) (entry `CC(C)C(=O)Nc1ccc([N+](=O)[O-])c(C(F)(F)F)c1` ) reads 0.12

* * *

# PARTICULARS: in ethanol, 283.15 K
MEASUREMENT_TYPE: solubility (mole fraction)
I only need the number, thanks.

Quick note, solubility (mole fraction) for `CC(C)C(=O)Nc1ccc([N+](=O)[O-])c(C(F)(F)F)c1` landed at 0.0556

* * *

# PARTICULARS: in THF, 318.15 K
MEASUREMENT_TYPE: solubility (mole fraction)
Reply with the value as a number alone.

// field: solubility (mole fraction); key: `CC(C)C(=O)Nc1ccc([N+](=O)[O-])c(C(F)(F)F)c1` ; value = 0.469

* * *

# PARTICULARS: in n-butanol, 318.15 K
MEASUREMENT_TYPE: solubility (mole fraction)

Summary for this molecule, `CC(C)C(=O)Nc1ccc([N+](=O)[O-])c(C(F)(F)F)c1` : solubility (mole fraction) is 0.135

* * *

# PARTICULARS: in n-propanol, 278.15 K
MEASUREMENT_TYPE: solubility (mole fraction)
Please state the value as a number alone, without comment.

Documented solubility (mole fraction) of `CC(C)C(=O)Nc1ccc([N+](=O)[O-])c(C(F)(F)F)c1` : 0.049

* * *

# PARTICULARS: in THF, 313.15 K
MEASUREMENT_TYPE: solubility (mole fraction)
Answer using only a numeral; do not append any unit.

The reported solubility (mole fraction) of the molecule `CC(C)C(=O)Nc1ccc([N+](=O)[O-])c(C(F)(F)F)c1` was 0.436

* * *

# PARTICULARS: in n-propanol, 308.15 K
MEASUREMENT_TYPE: solubility (mole fraction)
Would you mind answering with just the numeric figure?

What the record says about `CC(C)C(=O)Nc1ccc([N+](=O)[O-])c(C(F)(F)F)c1` : solubility (mole fraction) is 0.101

* * *

# PARTICULARS: in isobutanol, 313.15 K
MEASUREMENT_TYPE: solubility (mole fraction)
The answer should be a number; do not append a unit.

Consider `CC(C)C(=O)Nc1ccc([N+](=O)[O-])c(C(F)(F)F)c1` . Its measured solubility (mole fraction) is 0.141

* * *

# PARTICULARS: in n-butanol, 313.15 K
MEASUREMENT_TYPE: solubility (mole fraction)
Keep the answer to the number alone.

Record `CC(C)C(=O)Nc1ccc([N+](=O)[O-])c(C(F)(F)F)c1` , field solubility (mole fraction): 0.117

* * *

# PARTICULARS: in n-propanol, 318.15 K
MEASUREMENT_TYPE: solubility (mole fraction)
The response must contain the number and no unit.

Per the record, `CC(C)C(=O)Nc1ccc([N+](=O)[O-])c(C(F)(F)F)c1` has solubility (mole fraction) of 0.132

* * *

# PARTICULARS: in acetone, 298.15 K
MEASUREMENT_TYPE: solubility (mole fraction)
In your answer, state the number alone without any accompanying words.

For reference, reported solubility (mole fraction) for `CC(C)C(=O)Nc1ccc([N+](=O)[O-])c(C(F)(F)F)c1` stands at 0.291

* * *

# PARTICULARS: in ethanol, 323.15 K
MEASUREMENT_TYPE: solubility (mole fraction)
Lab note: jot the number down without any unit.

// solubility (mole fraction) value for `CC(C)C(=O)Nc1ccc([N+](=O)[O-])c(C(F)(F)F)c1` : 0.154

* * *

# PARTICULARS: in ethyl acetate, 303.15 K
MEASUREMENT_TYPE: solubility (mole fraction)
Keep the answer to the number alone.

Just so you know, measured solubility (mole fraction) for `CC(C)C(=O)Nc1ccc([N+](=O)[O-])c(C(F)(F)F)c1` came out at 0.246

* * *

# PARTICULARS: in isopropanol, 323.15 K
MEASUREMENT_TYPE: solubility (mole fraction)
Please give the numeric answer without any surrounding text.

Form field solubility (mole fraction), entry `CC(C)C(=O)Nc1ccc([N+](=O)[O-])c(C(F)(F)F)c1` : 0.182

* * *

# PARTICULARS: in ethyl acetate, 308.15 K
MEASUREMENT_TYPE: solubility (mole fraction)
I only need the number, thanks.

Data point: `CC(C)C(=O)Nc1ccc([N+](=O)[O-])c(C(F)(F)F)c1` ; solubility (mole fraction) = 0.269

* * *

# PARTICULARS: in ethanol, 278.15 K
MEASUREMENT_TYPE: solubility (mole fraction)

The reported value for `CC(C)C(=O)Nc1ccc([N+](=O)[O-])c(C(F)(F)F)c1` in terms of solubility (mole fraction) is 0.0503

* * *

# PARTICULARS: in THF, 283.15 K
MEASUREMENT_TYPE: solubility (mole fraction)
Reply briefly: the number, and no unit.

Recorded solubility (mole fraction) (compound `CC(C)C(=O)Nc1ccc([N+](=O)[O-])c(C(F)(F)F)c1` ): 0.276

* * *

# PARTICULARS: in n-butanol, 293.15 K
MEASUREMENT_TYPE: solubility (mole fraction)
Please respond with just the number, no unit label.

Lab book: solubility (mole fraction) of `CC(C)C(=O)Nc1ccc([N+](=O)[O-])c(C(F)(F)F)c1` noted as 0.0709

* * *

# PARTICULARS: in THF, 323.15 K
MEASUREMENT_TYPE: solubility (mole fraction)

Kindly note the recorded solubility (mole fraction) for `CC(C)C(=O)Nc1ccc([N+](=O)[O-])c(C(F)(F)F)c1` , which is 0.502

* * *

# PARTICULARS: in methanol, 288.15 K
MEASUREMENT_TYPE: solubility (mole fraction)

Reported solubility (mole fraction) of `CC(C)C(=O)Nc1ccc([N+](=O)[O-])c(C(F)(F)F)c1` : 0.0555

* * *

# PARTICULARS: in THF, 288.15 K
MEASUREMENT_TYPE: solubility (mole fraction)

// sample `CC(C)C(=O)Nc1ccc([N+](=O)[O-])c(C(F)(F)F)c1` , its solubility (mole fraction) was 0.297

* * *

# PARTICULARS: in ethyl acetate, 298.15 K
MEASUREMENT_TYPE: solubility (mole fraction)
When you answer, write just the number.

The reported solubility (mole fraction) of the compound `CC(C)C(=O)Nc1ccc([N+](=O)[O-])c(C(F)(F)F)c1` was 0.227
